- subject_of_test: Serine/threonine-protein kinase PAK 2 (Homo sapiens) (UniProt Q13177)
- Sequence (Q13177 whole entry): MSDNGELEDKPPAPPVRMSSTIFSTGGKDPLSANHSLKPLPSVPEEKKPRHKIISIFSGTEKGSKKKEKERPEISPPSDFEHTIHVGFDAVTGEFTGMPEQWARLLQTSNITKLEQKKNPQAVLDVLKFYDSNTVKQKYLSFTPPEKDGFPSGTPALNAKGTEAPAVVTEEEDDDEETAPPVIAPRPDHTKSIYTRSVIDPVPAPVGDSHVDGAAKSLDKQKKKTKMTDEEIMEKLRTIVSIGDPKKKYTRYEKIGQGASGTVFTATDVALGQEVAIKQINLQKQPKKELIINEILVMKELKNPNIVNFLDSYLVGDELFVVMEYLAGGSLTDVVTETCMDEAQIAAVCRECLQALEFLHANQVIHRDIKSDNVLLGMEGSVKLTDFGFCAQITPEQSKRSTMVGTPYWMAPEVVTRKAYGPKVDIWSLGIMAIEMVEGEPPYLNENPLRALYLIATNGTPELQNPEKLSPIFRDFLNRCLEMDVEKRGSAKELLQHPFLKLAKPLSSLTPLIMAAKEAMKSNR
- run_conditions: at 1 µM;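 also: reported values are mean inhibition of PAK2, averaged over measurements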
compounds and their reported inhibition
Unit % implied. Number only.

Consider the reported inhibition for these compounds:
# structure_smiles_string, quantitative_result
rows = [
    ("O=C(Nc1n[nH]c2nc(-c3ccc(O)cc3)c(Br)cc12)C1CC1", 3.87),
    ("COC(=O)Nc1nc2ccc(Sc3ccc(NC(=O)Nc4cc(C(F)(F)F)ccc4F)cc3)cc2[nH]1", 0.18),
]

[ask] Looking for the measured inhibition of Fc1ccc(-c2ncn(CCCN3CCOCC3)c2-c2ccncc2)cc1 , can you help?
[reply] -0.77

[ask] Same thing, different compound: O=C(NCC1CC1)c1ccc(-c2cccc(C(=O)NC3CC3)c2)cc1
[reply] 1.58

[ask] Please answer likewise for COc1ccc(-c2ccc3c(NC(=O)C4CC4)n[nH]c3n2)cc1
[reply] -0.84

[ask] Moving on to the next compound: NS(=O)(=O)c1ccc(N/N=C2\C(=O)Nc3ccc(C(=O)NCCCn4ccnc4)cc32)cc1
[reply] 2.78

[ask] Now the compound O=C(Nc1n[nH]c2nc(-c3ccco3)ccc12)C1CC1
[reply] -0.03

[ask] Can you handle COc1ccc(C2=C(N3CCc4ccccc43)C(=O)NC2=O)cc1 next?
[reply] 1.57

[ask] Also need Cc1ccc(C(=O)NC(C)C)cc1-c1ccc(C(=O)NCC2CC2)cc1 , thanks.
[reply] -3.39

[ask] Likewise for CCC(=O)Nc1ccc(C)c(-c2ccc(C(=O)NCC3CC3)cc2)c1 ?
[reply] 0.8

Cited source: ChEMBL document CHEMBL1961873
